assay: NFAT Signaling Pathway (AID 444); settings: Jurkat NFAT-bla M1, carbachol, beta-lactamase ratio, 5 h; at 7.69 µM (top of the series) unless noted;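 also: carbachol stimulus at about its EC50 of 1 µM final; % is scaled to controls: 0 for no effect and ±100 for the full control effect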
Inconclusive results are not listed. Calls of active or inactive are those of the source. Calls follow the shape of the dose curve; as a rule, active = well fitted curve in either direction with a large enough effect (not every such curve was filed as active); inconclusive = small, poorly fitted or top-dose-only effect, or another doubt; inactive = flat fitted curve, though single readings scatter.
parameter: activity change, negative = inhibition

Recorded activity change, negative = inhibition, per entry:
{"molecule": "C(=N/Nc1ccccn1)/c1cccnc1", "endpointResult": "5.25% (inactive)"}
{"molecule": "COc1cc(C2SCCCCCCCCCCSC(c3ccc(O)c(OC)c3)SCCCCCCCCCCS2)ccc1O (stereo unspecified)", "endpointResult": "19.7% (inactive)"}
{"molecule": "Cc1cc(=O)oc2cc(O)c(CN(C)CC(=O)O)cc12", "endpointResult": "10.9% (inactive)"}
{"molecule": "Oc1ccc(Cc2nccc3cc(O)c(O)cc23)cc1O", "endpointResult": "7.28% (inactive)"}
{"molecule": "O=C(O)/C=C\\c1c2ccc(=O)c(O)c-2oc2c(O)c(O)ccc12", "endpointResult": "2.25% (inactive)"}

Next, consider the following molecule.
In one line, give reported activity change, negative = inhibition of the entry `CC(CCN)(CCN)[N+](=O)[O-]` .
9.23% (inactive)
